Assay text: AUC (0 to infinity) in rat at 2 mg/kg, po
Format: ADME, organism-based
Parameters: dose 2 mg/kg, route oral, time infinity
Assay context: in vivo
AUC(0-inf) overview
Experimental readout: AUC(0-inf) (ng·h/mL)

compound=CN1C(=O)[C@@H](NC(=O)c2ncn(Cc3ccccc3)n2)COc2ccccc21 scale_unit=ng·h/mL value=280
compound=CN1C(=O)[C@@H](NC(=O)c2cn(Cc3ccccc3)nn2)COc2ccccc21 scale_unit=ng·h/mL value=1300
compound=O=C(N[C@H]1COc2ccccc2NC1=O)c1cc(Cc2ccccc2)on1 scale_unit=ng·h/mL value=2200
compound=CN1C(=O)[C@@H](NC(=O)c2nnc(Cc3ccccc3)o2)COc2ccccc21 scale_unit=ng·h/mL value=130
compound=CN1C(=O)[C@@H](NC(=O)c2cn(Cc3ccccc3)cn2)COc2ccccc21 scale_unit=ng·h/mL value=660
compound=CN1C(=O)[C@@H](NC(=O)c2cc(Cc3ccccc3)on2)COc2ccccc21 scale_unit=ng·h/mL value=380
compound=CN1C(=O)[C@@H](NC(=O)c2nnn(Cc3ccccc3)n2)COc2ccccc21 scale_unit=ng·h/mL value=240
compound=CN1C(=O)[C@@H](NC(=O)c2cnn(Cc3ccccc3)c2)COc2ccccc21 scale_unit=ng·h/mL value=2900
compound=CN1C[C@H](NC(=O)c2cc(Cc3ccccc3)on2)C(=O)N(C)c2ccccc21 scale_unit=ng·h/mL value=82
compound=CN1C(=O)[C@@H](NC(=O)c2cc(Cc3ccccc3)on2)COc2ccc(-c3n[nH]c(=O)o3)cc21 scale_unit=ng·h/mL value=2100
compound=COC(=O)Nc1ccc2c(c1)N(C)C(=O)[C@@H](NC(=O)c1cc(Cc3ccccc3)on1)CO2 scale_unit=ng·h/mL value=1100
compound=CN1C(=O)[C@@H](NC(=O)c2ncc(Cc3ccccc3)o2)COc2ccccc21 scale_unit=ng·h/mL value=55
compound=CN1C(=O)[C@@H](NC(=O)c2noc(Cc3ccccc3)n2)COc2ccccc21 scale_unit=ng·h/mL value=33
compound=CN1C(=O)[C@@H](NC(=O)c2cc(Cc3ccccc3)on2)CNc2ccccc21 scale_unit=ng·h/mL value=800
compound=CN1C(=O)[C@@H](NC(=O)c2cc(Cc3ccccc3)n(C)n2)COc2ccccc21 scale_unit=ng·h/mL value=170
compound="CN1C(=O)[C@@H](NC(=O)c2nnc(Cc3ccccc3)[nH]2)COc2ccccc21 [GSK2982772]" scale_unit=ng·h/mL value=2300
compound=CN1C(=O)[C@@H](NC(=O)c2cc(Cc3ccccc3)on2)COc2ccc(-c3cc[nH]n3)cc21 scale_unit=ng·h/mL value=600
compound=CN1C(=O)[C@@H](NC(=O)c2cc(Cc3ccccc3)on2)CCc2ccccc21 scale_unit=ng·h/mL value=7
compound=CC(=O)Nc1ccc2c(c1)N(C)C(=O)[C@@H](NC(=O)c1cc(Cc3ccccc3)on1)CO2 scale_unit=ng·h/mL value=450
compound=O=C(N[C@H]1CCOc2ccccc2NC1=O)c1cc(Cc2ccccc2)on1 scale_unit=ng·h/mL value=380

----------
Assay text: Kinetic solubility in phosphate buffer saline at pH 7.4 by chemiluminescence nitrogen detection method
Assay type: physicochemical
Assay context: phosphate buffered saline, read-out: Kinetic_solubility
Experimental readout: solubility kinetic

item_smiles=CN1C(=O)[C@@H](NC(=O)c2nnc(Cc3ccccc3)[nH]2)COc2ccccc21 value="100 µg/mL"
